The reader will find pKi measurements below, all made with Bacillus anthracis lethal factor protease (Bacillus anthracis).
Scale note: pKi = -log10(concentration in M).

compound	property name	number
Cc1cc(C[C@H](CCCCN(C)Cc2ccc(F)cc2)C(=O)NO)cc(C)c1F [Compound 168126]	pKi	6.26
Cc1cc(CC(C)C(=O)NO)cc(C)c1F (centres unmarked) [Compound 167858]	pKi	6.40
Cc1cc(C[C@H](CCCCNCc2cccc(-c3ccccc3)c2)C(=O)NO)ccc1F [Compound 168140]	pKi	6.15
Cc1cc(C[C@H](CCC/C=C/C(C)C)C(=O)NO)cc(C)c1F [Compound 168023]	pKi	5.71

With those in mind, consider the next compound.
Ask: Which pKi value belongs to Cc1cc(CC(C#N)C(=O)NO)cc(C)c1F (centres unmarked) [Compound 167914] ?
Result: 4.32

---

The reader will find pKi measurements below, all made with Bacillus anthracis lethal factor protease (Bacillus anthracis, UniProt P15917).
Sequence (P15917 34-809 limits assumed): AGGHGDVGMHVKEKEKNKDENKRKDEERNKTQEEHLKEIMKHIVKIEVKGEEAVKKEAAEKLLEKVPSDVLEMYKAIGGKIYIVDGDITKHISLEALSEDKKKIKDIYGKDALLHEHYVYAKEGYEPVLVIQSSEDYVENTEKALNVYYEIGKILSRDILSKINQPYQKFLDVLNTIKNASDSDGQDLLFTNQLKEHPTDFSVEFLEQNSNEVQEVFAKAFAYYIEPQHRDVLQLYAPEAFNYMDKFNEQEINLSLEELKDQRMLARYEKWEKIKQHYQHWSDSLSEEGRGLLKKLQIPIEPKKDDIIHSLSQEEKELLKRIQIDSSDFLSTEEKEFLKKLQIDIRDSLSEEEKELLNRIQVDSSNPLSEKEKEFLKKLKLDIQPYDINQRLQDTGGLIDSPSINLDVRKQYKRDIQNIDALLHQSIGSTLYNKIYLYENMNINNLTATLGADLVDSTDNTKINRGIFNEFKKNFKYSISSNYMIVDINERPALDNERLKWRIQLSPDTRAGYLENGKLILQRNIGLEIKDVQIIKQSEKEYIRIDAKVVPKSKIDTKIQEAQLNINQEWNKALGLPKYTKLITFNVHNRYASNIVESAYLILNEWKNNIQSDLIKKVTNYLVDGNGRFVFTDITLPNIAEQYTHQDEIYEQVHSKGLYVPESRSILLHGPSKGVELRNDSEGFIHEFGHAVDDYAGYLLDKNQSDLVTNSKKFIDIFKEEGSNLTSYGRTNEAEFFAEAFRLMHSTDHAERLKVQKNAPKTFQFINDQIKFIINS
Scale note: pKi = -log10(concentration in M).

Reference set, count: 3
compound	pKi
Cc1cc(C[C@@H](CCCCCC(C)C)C(=O)NO)cc(C)c1F [Compound 168052]	3.52
Cc1cc(C[C@@H](C(=O)NO)c2ccc(Br)cc2)cc(C)c1F [Compound 168009]	6.11
Cc1cc(CCCCCC[C@@H](Cc2ccc(Cl)cc2)C(=O)NO)ccc1F [Compound 168134]	4.19

Ask: Record Cc1cc(CC(CCN(C)CCCc2ccc(F)cc2)C(=O)NO)cc(C)c1F (stereo in doubt) [Compound 168172] : what is its pKi with Bacillus anthracis lethal factor protease (Bacillus anthracis, UniProt P15917)?
Result: 6.54

---

The reader will find log10 Ki measurements below, all made with Bacillus anthracis lethal factor protease (Bacillus anthracis, UniProt P15917).
Values are log10 of Ki in nM.

Reference set, count: 6
compound	measurement target	property name	number
CCCCC(Cc1ccc(F)c(C)c1)C(=O)NO (stereo not shown)	Bacillus anthracis lethal factor protease (Bacillus anthracis, UniProt P15917)	log10 Ki	3.36
Cc1ccc(CNCCCC[C@@H](Cc2cc(C)c(F)c(C)c2)C(=O)NO)o1	Bacillus anthracis lethal factor protease (Bacillus anthracis, UniProt P15917)	log10 Ki	2.11
Cc1cc(COCCCC[C@@H](Cc2cc(C)c(F)c(C)c2)C(=O)NO)ccc1F	Bacillus anthracis lethal factor protease (Bacillus anthracis, UniProt P15917)	log10 Ki	3.56
Cc1cc(C[C@H](CCCCNCC2CCCCC2)C(=O)NO)cc(C)c1F	Bacillus anthracis lethal factor protease (Bacillus anthracis, UniProt P15917)	log10 Ki	2.60
CCC(CC)CNCCCC[C@@H](Cc1cc(C)c(F)c(C)c1)C(=O)NO	Bacillus anthracis lethal factor protease (Bacillus anthracis, UniProt P15917)	log10 Ki	2.40
CCCCC(Cc1cc(C)c(F)c(C)c1)C(=O)NO (stereo not shown)	Bacillus anthracis lethal factor protease (Bacillus anthracis, UniProt P15917)	log10 Ki	3.08

With those in mind, consider the next compound.
Ask: Which log10 Ki value belongs to Cc1cc(CCCN(C)CC[C@@H](Cc2ccc(Cl)cc2)C(=O)NO)ccc1F ?
Result: 3.24

---

This listing pairs compounds with measured pKi.
biological target: Bacillus anthracis lethal factor protease (Bacillus anthracis, UniProt P15917)
Scale note: pKi = -log10(concentration in M).

compound	pKi
Cc1cc(C[C@H](CCCCNCc2ccc(Cl)cc2)C(=O)NO)cc(C)c1F [Compound 168125]	6.72
Cc1cc(CCC(=O)NO)cc(C)c1F [Compound 167857]	5.87
CCCC[C@@H](Cc1ccccc1)C(=O)NO (stereo in doubt) [Compound 167550, 2-Benzyl-hexanoic acid hydroxyamide]	4.19
Cc1cc(C[C@H](CCCCNCc2cnccn2)C(=O)NO)cc(C)c1F [Compound 168179]	6.15

Ask: Which pKi value belongs to Cc1cc(C[C@H](CCCCNCCCc2ccc(F)cc2)C(=O)NO)cc(C)c1F [Compound 168123] ?
Result: 7.33

Entry source: patent US7807720B2
